Tested on: Staphylococcus epidermidis
protocol-description: Antibacterial activity against erythromycin-resistant Staphylococcus epidermidis 19-5 assessed as inhibition of visible bacterial growth incubated for 18 hrs by broth microdilution method
Format: functional
Parameter MIC: see the listing below.

Reference set, count: 3
CC[C@H]1OC(=O)[C@@](C)(F)C(=O)[C@H](C)[C@@H](O[C@@H]2O[C@H](C)C[C@H](N(C)C)[C@H]2O)[C@](C)(OC)C[C@@H](C)C(=O)[C@H](C)[C@H]2N(CCCOC(=O)Nc3c(F)cccc3F)C(=O)O[C@]12C
< 0.03 µg/mL
CC[C@H]1OC(=O)[C@@](C)(F)C(=O)[C@H](C)[C@@H](O[C@@H]2O[C@H](C)C[C@H](N(C)C)[C@H]2O)[C@](C)(OC)C[C@@H](C)C(=O)[C@H](C)[C@H]2N(CCCOC(=O)Nc3ccc4c(c3)CCO4)C(=O)O[C@]12C
< 0.03 µg/mL
CC[C@H]1OC(=O)[C@@](C)(F)C(=O)[C@H](C)[C@@H](O[C@@H]2O[C@H](C)C[C@H](N(C)C)[C@H]2O)[C@](C)(OC)C[C@@H](C)C(=O)[C@H](C)[C@H]2N(CCCOC(=O)Nc3ccccc3C)C(=O)O[C@]12C
< 0.03 µg/mL

Next molecule, MIC to be filled in.
According to the records, this molecule `CC[C@H]1OC(=O)[C@@](C)(F)C(=O)[C@H](C)[C@@H](O[C@@H]2O[C@H](C)C[C@H](N(C)C)[C@H]2O)[C@](C)(OC)C[C@@H](C)C(=O)[C@H](C)[C@H]2N(CCCOC(=O)Nc3cccnc3)C(=O)O[C@]12C` displays MIC of 0.125 µg/mL

Source listed as ChEMBL document CHEMBL5543097.
